Values compiled from ChEMBL document CHEMBL1153316.

Kindly supply the reported Activity values for the records listed here.
Assay target: Plasminogen (Homo sapiens) (UniProt P00747)
Sequence (P00747 97-580 limits assumed): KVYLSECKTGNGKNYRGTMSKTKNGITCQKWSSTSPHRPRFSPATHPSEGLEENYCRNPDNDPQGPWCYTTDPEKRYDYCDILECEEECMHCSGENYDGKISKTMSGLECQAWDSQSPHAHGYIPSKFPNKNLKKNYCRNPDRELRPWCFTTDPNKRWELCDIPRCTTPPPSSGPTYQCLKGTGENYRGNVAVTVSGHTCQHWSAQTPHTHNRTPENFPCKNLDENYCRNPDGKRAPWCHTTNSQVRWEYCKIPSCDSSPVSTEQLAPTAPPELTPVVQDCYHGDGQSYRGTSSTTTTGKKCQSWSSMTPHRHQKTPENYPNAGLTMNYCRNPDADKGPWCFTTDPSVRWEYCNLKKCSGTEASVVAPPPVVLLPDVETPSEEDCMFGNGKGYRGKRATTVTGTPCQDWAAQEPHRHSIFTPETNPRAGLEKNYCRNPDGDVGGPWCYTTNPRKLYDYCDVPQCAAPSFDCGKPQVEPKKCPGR
Sequence (P00747 581-810 limits assumed): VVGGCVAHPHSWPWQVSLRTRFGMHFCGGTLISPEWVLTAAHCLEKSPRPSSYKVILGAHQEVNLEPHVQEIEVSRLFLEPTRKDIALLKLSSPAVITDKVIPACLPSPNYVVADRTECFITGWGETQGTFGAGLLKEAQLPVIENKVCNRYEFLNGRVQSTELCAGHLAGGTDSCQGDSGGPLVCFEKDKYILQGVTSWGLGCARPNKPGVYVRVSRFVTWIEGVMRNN
Measurement description: Inhibition of plasmin assessed as residual proteolytic activity at 0.5 mM
Peptide text beside a SMILES is read from it.
Give the number; % is assumed, so skip it.

Query :: Can you look up the measured Activity of CSCC[C@H](NC(=O)[C@H](CCSC)NC(=O)[C@@H]1CCCN1C(=O)[C@H](CC(C)C)NC(=O)[C@@H](NC(=O)[C@H](CC(N)=O)NC(=O)[C@H](Cc1ccccc1)NC(=O)[C@@H](N)C(C)C)[C@@H](C)O)C(=O)NCC(=O)N[C@@H](CCCCN)C(=O)N[C@@H](C)C(=O)N[C@@H](CO)C(=O)N1CCC[C@H]1C(=O)N[C@H](C(=O)CCl)C(C)C (HELM PEPTIDE1{V.F.N.T.L.P.M.M.G.K.A.S.P.V.[ClC[*:1]]}$$$$V2.0) for me?
Result :: 75

Query :: Further, for CSCC[C@H](NC(=O)[C@H](CCSC)NC(=O)[C@@H]1CCCN1C(=O)[C@H](CC(C)C)NC(=O)[C@@H](NC(=O)[C@H](CC(N)=O)NC(=O)[C@H](Cc1ccccc1)NC(=O)[C@@H](NC(=O)[C@@H]1CCCN1)C(C)C)[C@@H](C)O)C(=O)NCC(=O)N[C@@H](CCCCN)C(=O)N[C@@H](C)C(=O)N[C@@H](CO)C(=O)N1CCC[C@H]1C(=O)N[C@H](C(=O)CCl)C(C)C (HELM PEPTIDE1{P.V.F.N.T.L.P.M.M.G.K.A.S.P.V.[ClC[*:1]]}$$$$V2.0) ?
Result :: 62

Query :: Next compound up: CC(C)[C@H](NC(=O)[C@H](CCCNC(=N)N)NC(=O)CNC(=O)[C@@H](N)CO)C(=O)N[C@H](C(=O)N1CCC[C@H]1C(=O)NCC(=O)N[C@@H](Cc1ccc(O)cc1)C(=O)NCC(=O)N[C@@H](Cc1cnc[nH]1)C(=O)N[C@@H](C)C(=O)CCl)C(C)C (HELM PEPTIDE1{S.G.R.V.V.P.G.Y.G.H.A.[ClC[*:1]]}$$$$V2.0)
Result :: 62

Query :: And for CSCC[C@H](NC(=O)[C@@H]1CCCN1C(=O)[C@@H](N)CO)C(=O)N[C@@H](Cc1ccccc1)C(=O)N[C@@H](CCCCN)C(=O)NCC(=O)N[C@H](C(=O)CCl)C(C)C (HELM PEPTIDE1{S.P.M.F.K.G.V.[ClC[*:1]]}$$$$V2.0) ?
Result :: 81

###

Measurement description: Inhibition of elastase assessed as specific activity at 0.5 mM
Set-up: scale not given: the % may be the effect or the level left
Peptide text beside a SMILES is read from it.
I'd be grateful if you could share measured Activity for these entries.

Query :: Which measured Activity value corresponds to CC(C)C[C@H](NC(=O)CNC(=O)[C@H](C)NC(=O)CNC(=O)[C@@H]1CCCN1C(=O)[C@@H](NC(=O)[C@H](CO)NC(=O)[C@H](C)NC(=O)CNC(=O)[C@@H](N)CCCCN)C(C)C)C(=O)N[C@H](C(=O)Nc1ccc([N+](=O)[O-])cc1)C(C)C (HELM PEPTIDE1{K.G.A.S.V.P.G.A.G.L.V.[O=[N+]([O-])c1ccc(N[*:1])cc1]}$$$$V2.0) ?
Result :: 6%

Query :: Item: CSCC[C@H](NC(=O)[C@H](CCSC)NC(=O)[C@@H]1CCCN1)C(=O)NCC(=O)N[C@@H](CCCCN)C(=O)N[C@@H](C)C(=O)N[C@@H](CO)C(=O)N1CCC[C@H]1C(=O)N[C@H](C(=O)Nc1ccc([N+](=O)[O-])cc1)C(C)C (HELM PEPTIDE1{P.M.M.G.K.A.S.P.V.[O=[N+]([O-])c1ccc(N[*:1])cc1]}$$$$V2.0)
Result :: 96%

Query :: Queued: `CC(C)C[C@H](NC(=O)CN)C(=O)N[C@@H](C)C(=O)N[C@H](C(=O)NCC(=O)N[C@@H](CC(N)=O)C(=O)N[C@H](C(=O)N[C@@H](CO)C(=O)N[C@H](C(=O)N[C@@H](C)C(=O)N[C@@H](CCC(=O)O)C(=O)N[C@@H](CC(C)C)C(=O)N[C@@H](CCC(N)=O)C(=O)N[C@@H](CC(=O)O)C(=O)N[C@@H](C)C(=O)N[C@H](C(=O)N1CCC[C@H]1C(=O)N[C@@H](C)C(=O)Nc1ccc([N+](=O)[O-])cc1)[C@H](C)O)[C@@H](C)O)C(C)C)[C@@H](C)O`
Result :: 24%

###

Measurement description: Inhibition of trypsin assessed as residual proteolytic activity at 0.5 mM
Peptide text beside a SMILES is read from it.
Result type: Activity (%)
Record the value in %, omitting the unit from your answer.

Query :: For the compound CSCC[C@H](NC(=O)[C@H](CCSC)NC(=O)[C@@H]1CCCN1)C(=O)NCC(=O)N[C@@H](CCCCN)C(=O)N[C@@H](C)C(=O)N[C@@H](CO)C(=O)N1CCC[C@H]1C(=O)N[C@H](C(=O)CCl)C(C)C (HELM PEPTIDE1{P.M.M.G.K.A.S.P.V.[ClC[*:1]]}$$$$V2.0) , what Activity is on record?
Result :: 348

###

Measurement description: Inhibition of subtilisin assessed as residual proteolytic activity at 0.5 mM
Peptide text beside a SMILES is read from it.
Result type: Activity (%)
Reply numerically in %, unit not repeated.

Query :: Find the recorded Activity belonging to CSCC[C@H](NC(=O)[C@H](CCSC)NC(=O)[C@@H]1CCCN1C(=O)[C@H](CC(C)C)NC(=O)[C@@H](NC(=O)[C@H](CC(N)=O)NC(=O)[C@H](Cc1ccccc1)NC(=O)[C@@H](NC(=O)[C@@H]1CCCN1)C(C)C)[C@@H](C)O)C(=O)NCC(=O)N[C@@H](CCCCN)C(=O)N[C@@H](C)C(=O)N[C@@H](CO)C(=O)N1CCC[C@H]1C(=O)N[C@H](C(=O)CCl)C(C)C (HELM PEPTIDE1{P.V.F.N.T.L.P.M.M.G.K.A.S.P.V.[ClC[*:1]]}$$$$V2.0) and report it.
Result :: 143

###

Measurement description: Inhibition of elastase assessed as residual proteolytic activity at 0.5 mM
Peptide text beside a SMILES is read from it.
Result type: Activity

Query :: What Activity value was documented for this molecule, CSCC[C@H](NC(=O)[C@H](CCSC)NC(=O)[C@@H]1CCCN1C(=O)[C@H](CC(C)C)NC(=O)[C@@H](NC(=O)[C@H](CC(N)=O)NC(=O)[C@H](Cc1ccccc1)NC(=O)[C@@H](N)C(C)C)[C@@H](C)O)C(=O)NCC(=O)N[C@@H](CCCCN)C(=O)N[C@@H](C)C(=O)N[C@@H](CO)C(=O)N1CCC[C@H]1C(=O)N[C@H](C(=O)CCl)C(C)C (HELM PEPTIDE1{V.F.N.T.L.P.M.M.G.K.A.S.P.V.[ClC[*:1]]}$$$$V2.0) ?
Result :: < 1%

Query :: Consider next the molecule CSCC[C@H](NC(=O)[C@H](CCSC)NC(=O)[C@@H]1CCCN1)C(=O)NCC(=O)N[C@@H](CCCCN)C(=O)N[C@@H](C)C(=O)N[C@@H](CO)C(=O)N1CCC[C@H]1C(=O)N[C@H](C(=O)CCl)C(C)C (HELM PEPTIDE1{P.M.M.G.K.A.S.P.V.[ClC[*:1]]}$$$$V2.0) in the same way.
Result :: < 1%

Query :: Proceed to CSCC[C@H](NC(=O)[C@@H]1CCCN1C(=O)[C@@H](N)CO)C(=O)N[C@@H](Cc1ccccc1)C(=O)N[C@@H](CCCCN)C(=O)NCC(=O)N[C@H](C(=O)CCl)C(C)C (HELM PEPTIDE1{S.P.M.F.K.G.V.[ClC[*:1]]}$$$$V2.0)
Result :: < 1%

Query :: Same thing, different molecule: CC(C)[C@H](NC(=O)[C@H](CCCNC(=N)N)NC(=O)CNC(=O)[C@@H](N)CO)C(=O)N[C@H](C(=O)N1CCC[C@H]1C(=O)NCC(=O)N[C@@H](Cc1ccc(O)cc1)C(=O)NCC(=O)N[C@@H](Cc1cnc[nH]1)C(=O)N[C@@H](C)C(=O)CCl)C(C)C (HELM PEPTIDE1{S.G.R.V.V.P.G.Y.G.H.A.[ClC[*:1]]}$$$$V2.0)
Result :: 83%

Query :: Then CSCC[C@H](NC(=O)[C@H](CCSC)NC(=O)[C@@H]1CCCN1C(=O)[C@H](CC(C)C)NC(=O)[C@@H](NC(=O)[C@H](CC(N)=O)NC(=O)[C@H](Cc1ccccc1)NC(=O)[C@@H](NC(=O)[C@@H]1CCCN1)C(C)C)[C@@H](C)O)C(=O)NCC(=O)N[C@@H](CCCCN)C(=O)N[C@@H](C)C(=O)N[C@@H](CO)C(=O)N1CCC[C@H]1C(=O)N[C@H](C(=O)CCl)C(C)C (HELM PEPTIDE1{P.V.F.N.T.L.P.M.M.G.K.A.S.P.V.[ClC[*:1]]}$$$$V2.0) ?
Result :: < 1%

Query :: Moving on to CC[C@H](C)[C@H](N)C(=O)N[C@@H](Cc1c[nH]c2ccccc12)C(=O)N[C@@H](CC(N)=O)C(=O)N[C@H](C(=O)N[C@@H](CC(C)C)C(=O)N[C@@H](CC(N)=O)C(=O)N[C@@H](CO)C(=O)NCC(=O)N[C@@H](CCCNC(=N)N)C(=O)N[C@H](C(=O)N[C@H](C(=O)N1CCC[C@H]1C(=O)NCC(=O)N[C@H](C(=O)NCC(=O)N[C@@H](Cc1cnc[nH]1)C(=O)N[C@@H](C)C(=O)CCl)[C@@H](C)O)C(C)C)C(C)C)[C@@H](C)O (HELM PEPTIDE1{I.W.N.T.L.N.S.G.R.V.V.P.G.T.G.H.A.[ClC[*:1]]}$$$$V2.0)
Result :: 60%
